system name: HLA-A*31:01
method notes: IEDB peptide-MHC binding, purified MHC/direct/fluorescence; filed as Kd, often an IC50 or EC50 that approximates it; bounds were set here for any values at or beyond the usual limits of such assays
condition details: source organism: Influenza A virus (A/SW/KS/13481-T/00(H1N2))
quantity name: Kd

**Q:** Fill in: Kd of `HEKGINPNY` is ___
**A:** ≥ 20 µM

###

system name: HLA-B*45:01
method notes: IEDB peptide-MHC binding, purified MHC/competitive/radioactivity; filed as Kd, often an IC50 or EC50 that approximates it; bounds were set here for any values at or beyond the usual limits of such assays
condition details: source organism: Mammarenavirus machupoense
quantity name: pKd
Scale explanation: pKd corresponds to minus log10 of a concentration expressed in moles per litre.

**Q:** What pKd appears in the records for this sequence with HLA-B*45:01? `EEVLDVCPLG`
**A:** 5.35

###

system name: HLA-A*24:02
method notes: IEDB peptide-MHC binding, purified MHC/competitive/radioactivity; filed as Kd, often an IC50 or EC50 that approximates it; bounds were set here for any values at or beyond the usual limits of such assays
condition details: source organism: Mammarenavirus whitewaterense
quantity name: Kd

**Q:** // returns reported Kd for input `VWKRFEHLCV`
**A:** ≥ 47.6 µM

###

system name: HLA-A*32:01
method notes: IEDB peptide-MHC binding, purified MHC/competitive/radioactivity; filed as Kd, often an IC50 or EC50 that approximates it; bounds were set here for any values at or beyond the usual limits of such assays
condition details: source organism: Dengue virus 2 Peru/IQT2913/1996
quantity name: pKd
When answering, recall that pKd equals minus log10 of the concentration in mol/L, and write that number alone.

**Q:** Return pKd measured with HLA-A*32:01 given this sequence: `RQMEGEGVF`
**A:** 6.37

###

system name: HLA-A*26:01
method notes: IEDB peptide-MHC binding, purified MHC/competitive/fluorescence; filed as Kd, often an IC50 or EC50 that approximates it; bounds were set here for any values at or beyond the usual limits of such assays
condition details: source organism: Araucaria virus
pKd: −log10 of the molar value.
quantity name: pKd

**Q:** Using the record for `LYVAGVPEL` , report its pKd.
**A:** ≤ 4.70

###

system name: HLA-A*31:01
method notes: IEDB peptide-MHC binding, purified MHC/direct/fluorescence; filed as Kd, often an IC50 or EC50 that approximates it; bounds were set here for any values at or beyond the usual limits of such assays
condition details: source organism: Influenza A virus (A/Hong Kong/507/97(H5N1))
pKd: −log10 of the molar value.
quantity name: pKd

**Q:** State its pKd on HLA-A*31:01: `KSCLPACVY`
**A:** ≤ 4.70

###

system name: HLA-B*40:01
method notes: IEDB peptide-MHC binding, purified MHC/competitive/radioactivity; filed as Kd, often an IC50 or EC50 that approximates it; bounds were set here for any values at or beyond the usual limits of such assays
condition details: source organism: Dengue virus 4 Philippines/H241/1956
quantity name: Kd (nM)
Give your result in nM as a bare value.

**Q:** Give the measured Kd of `VEMGEAAAIF` .
**A:** 971

###

system name: HLA-A*01:01
method notes: IEDB peptide-MHC binding, purified MHC/direct/fluorescence; filed as Kd, often an IC50 or EC50 that approximates it; bounds were set here for any values at or beyond the usual limits of such assays
condition details: source organism: Influenza A virus (A/Hong Kong/507/97(H5N1))
quantity name: Kd

**Q:** Given the entry `KSCLPACVY` , report its measured Kd.
**A:** ≥ 20 µM
